pKi: −log10 of the molar value.
Note to self: these compounds have pKi reported for D(3) dopamine receptor (Homo sapiens, UniProt P35462) in various publications.
Class field: derived from pKi; ranges range A = under 6, range B = from 6 up to 8, range C = 8 and over

See these solved cases before continuing.
compound	group
OC1(c2ccc(Cl)cc2)CCCN(Cc2c[nH]c3ccccc23)CC1 (stereo not given)	range A
N#Cc1ccc2c(c1)OCC1CN(Cc3ccccc3)CC21 (trans isomer)	range B
COc1ccccc1N1CCN(CCCNC(=O)Nc2ccccc2-c2ccccc2)CC1	range B
N#Cc1cc2cc(OCCCCN3CCN(c4cccc(Cl)c4Cl)CC3)ccn2n1	range C

Q) The entry to classify is `COc1cccc(N2CCN(CCCCNC(=O)c3ccc4ccccc4n3)CC2)c1` ; which class holds it?
A) range B

Q) State the band of `c1ccc(CCN2CCC(c3cc(-c4ccccn4)[nH]n3)CC2)cc1`
A) range A

Q) Tag the class for `Clc1cccc(N2CCN(CCCCn3cc(-c4ccc5[nH]ccc5c4)nn3)CC2)c1Cl`
A) range C

Q) Which band does `Cn1c(N2CCCC2)nc2c(CN3CCN(c4ccc(F)cc4)CC3)c[nH]c2c1=O` fall in?
A) range B
